# MEASUREMENT TARGET: PI3K (Homo sapiens)
# Construct: PI3 Kinase γ IC50; other: PI3 Kinase γ; other: PI3 Kinase γ isoform, fluorescence polarization
# Sequence (P48736 whole entry, canonical isoform): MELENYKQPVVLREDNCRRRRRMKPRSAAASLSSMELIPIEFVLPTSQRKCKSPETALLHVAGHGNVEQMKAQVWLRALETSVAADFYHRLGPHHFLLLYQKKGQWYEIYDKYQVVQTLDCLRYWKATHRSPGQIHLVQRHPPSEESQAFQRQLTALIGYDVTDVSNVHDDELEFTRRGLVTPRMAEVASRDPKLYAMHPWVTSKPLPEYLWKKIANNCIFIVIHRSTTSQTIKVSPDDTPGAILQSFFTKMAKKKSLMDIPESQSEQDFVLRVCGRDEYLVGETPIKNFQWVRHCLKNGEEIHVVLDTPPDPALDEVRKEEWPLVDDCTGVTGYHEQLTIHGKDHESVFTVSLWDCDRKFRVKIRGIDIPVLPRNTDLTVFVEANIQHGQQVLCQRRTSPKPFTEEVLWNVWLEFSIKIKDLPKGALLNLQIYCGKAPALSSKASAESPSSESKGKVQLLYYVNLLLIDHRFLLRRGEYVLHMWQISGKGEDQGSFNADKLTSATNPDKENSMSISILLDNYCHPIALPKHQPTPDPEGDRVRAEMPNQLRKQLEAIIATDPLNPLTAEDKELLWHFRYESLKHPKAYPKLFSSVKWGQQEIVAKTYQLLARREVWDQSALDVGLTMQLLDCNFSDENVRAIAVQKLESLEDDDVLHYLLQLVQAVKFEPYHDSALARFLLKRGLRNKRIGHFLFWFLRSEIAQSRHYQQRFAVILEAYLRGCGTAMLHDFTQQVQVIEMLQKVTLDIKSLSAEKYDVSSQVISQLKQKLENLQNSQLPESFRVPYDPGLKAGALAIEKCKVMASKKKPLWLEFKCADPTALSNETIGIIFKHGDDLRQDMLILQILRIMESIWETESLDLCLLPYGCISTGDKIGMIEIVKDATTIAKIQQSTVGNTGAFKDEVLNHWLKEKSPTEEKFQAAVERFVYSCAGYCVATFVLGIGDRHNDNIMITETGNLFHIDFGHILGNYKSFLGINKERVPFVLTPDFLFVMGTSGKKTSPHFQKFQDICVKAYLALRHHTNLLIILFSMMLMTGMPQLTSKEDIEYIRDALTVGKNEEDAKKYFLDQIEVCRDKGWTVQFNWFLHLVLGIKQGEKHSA
# METHOD: Fluorescence polarization assay for PI3K
# Type: biochemical
# PARTICULARS: PI3 Kinase γ isoform, fluorescence polarization; read-out: PI3 Kinase γ IC50
# Description: This assay is used to determine the IC50 of compounds of the present invention as it identifies inhibitors of PI3 kinase by measuring inhibition. […] Stop/detector mix is prepared by mixing 4 μL Red detector and 1.6 μL or 2.0 μL GST-GRP with 1 mL Stop buffer, which results in 10 nM probe and 70 nM GST-GRP). […] The plates are read after 30-90 minutes keeping the red probe solutions dark. […] Plates are read on machines with filters for Tamra. […]
pIC50: −log10 of the molar value.
PROPERTY NAME: pIC50

INSERT INTO assay_data (compound, measurement_target, censoring_qualifier, measured_value) VALUES
  ('O=C(Nc1ccncc1)Nc1ccc(-c2nc(N3CC4CNCC(C3)O4)c3cnn(CC(F)(F)F)c3n2)cc1', 'PI3K (Homo sapiens)', '=', 5.10),
  ('CNC(=O)Nc1ccc(-c2nc(N3CC4CCC(C3)O4)c3sc(CN4CCN(C)CC4)cc3n2)cc1', 'PI3K (Homo sapiens)', '=', 5.24),
  ('O=C(Nc1ccc(-c2nc(N3C[C@H]4C[C@@H]3CO4)c3cnn(CC(F)(F)F)c3n2)cc1)NC1CC1', 'PI3K (Homo sapiens)', '<', 5.00),
  ('O=C(Nc1ccncc1)Nc1ccc(-c2nc(N3CC4CCC(C3)O4)c3sccc3n2)cc1', 'PI3K (Homo sapiens)', '=', 5.86),
  ('CO[C@H]1CC[C@H](n2ncc3c(N4CC5CCC(C4)O5)nc(-c4ccc(NC(=O)Nc5ccc(N6CCN(C)CC6)cc5)cc4)nc32)CC1 (relative stereo)', 'PI3K (Homo sapiens)', '=', 5.75),
  ('O=C(Nc1ccc(-c2nc(N3C[C@@H]4C[C@H]3CO4)c3cnn(CC(F)(F)F)c3n2)cc1)Nc1ccc(N2CCNCC2)cc1', 'PI3K (Homo sapiens)', '=', 5.51),
  ('CS(=O)(=O)N1CCN(Cc2cc3nc(-c4ccc(NC(=O)Nc5ccncc5)cc4)nc(N4CC5CCC(C4)O5)c3s2)CC1', 'PI3K (Homo sapiens)', '=', 6.48),
  ('O=C(Nc1ccc(-c2nc(N3CC4CCC(C3)O4)c3cnn(C4CCC5(CCCO5)CC4)c3n2)cc1)OCCO (single isomer, unassigned)', 'PI3K (Homo sapiens)', '=', 5.69),
  ('O=C(Nc1ccc(-c2nc(N3CC4CCC(C3)O4)c3cnn(C4CCC5(CCCO5)CC4)c3n2)cc1)NC1CC1 (single isomer, unassigned)', 'PI3K (Homo sapiens)', '<', 5.00),
  ('COC(=O)N1CCC(n2ncc3c(N4C5CCC4COC5)nc(-c4ccc(NC(=O)Nc5ccc(N6CCN(C)CC6)cc5)cc4)nc32)CC1', 'PI3K (Homo sapiens)', '=', 5.49),
  ('CN1CCN(Cc2cc3nc(-c4ccc(NC(=O)NC5CC5)cc4)nc(N4CC5CCC(C4)O5)c3s2)CC1', 'PI3K (Homo sapiens)', '=', 5.44),
  ('CNC(=O)Nc1ccc(-c2nc(N3CC4CCC(C3)O4)c3cnn(C4CCC(NN(C)C)CC4)c3n2)cc1 (centres unmarked)', 'PI3K (Homo sapiens)', '=', 5.34),
  ('CN1CCN(C2CCC(n3ncc4c(N5CC6CCC(C5)O6)nc(-c5ccc(NC(=O)Nc6cccnc6)cc5)nc43)CC2)CC1 (centres unmarked)', 'PI3K (Homo sapiens)', '=', 5.73),
  ('c1cc2cc(-c3nc(N4CC5CCC(C4)O5)c4sccc4n3)ccc2[nH]1', 'PI3K (Homo sapiens)', '<', 5.00);
